assay.system: UniProt:P11511
Sequence (P11511 whole entry): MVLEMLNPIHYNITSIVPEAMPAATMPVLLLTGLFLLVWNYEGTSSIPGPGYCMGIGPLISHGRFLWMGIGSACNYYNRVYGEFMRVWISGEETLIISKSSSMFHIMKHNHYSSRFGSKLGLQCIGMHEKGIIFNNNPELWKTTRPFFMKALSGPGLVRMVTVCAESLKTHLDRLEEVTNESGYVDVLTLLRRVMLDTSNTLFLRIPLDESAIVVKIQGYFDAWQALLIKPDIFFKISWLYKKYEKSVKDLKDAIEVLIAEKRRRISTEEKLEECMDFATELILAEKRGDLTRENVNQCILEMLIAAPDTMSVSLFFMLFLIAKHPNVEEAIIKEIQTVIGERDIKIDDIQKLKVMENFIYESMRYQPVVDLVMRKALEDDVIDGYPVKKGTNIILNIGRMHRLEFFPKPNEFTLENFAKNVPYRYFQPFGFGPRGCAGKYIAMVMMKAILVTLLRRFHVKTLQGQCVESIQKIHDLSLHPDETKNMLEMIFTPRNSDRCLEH
assay.text: Inhibition of recombinant human aromatase at 1 uM preincubated for 10 mins followed by substrate and beta-NADP+ addition and measured for 60 mins by fluorimetric assay relative to letrozole
experimental.parameters: 1 h
property.name: inhibition at 1 µM (%)

# count of solved cases: 3
smiles.text: O=S(=O)(Cc1ccccc1)NCCc1c[nH]c2ccccc12
inhibition at 1 µM, %: 75.2
//
smiles.text: Cc1ccc(S(=O)(=O)NCCc2c[nH]c3ccccc23)cc1[N+](=O)[O-]
inhibition at 1 µM, %: 30.6
//
smiles.text: Cc1ccc(S(=O)(=O)NCCc2c[nH]c3ccccc23)cc1
inhibition at 1 µM, %: 43.5

P = N#Cc1ccc(S(=O)(=O)NCCc2c[nH]c3ccccc23)c(Cl)c1
Q = O=S(=O)(NCCc1c[nH]c2ccccc12)c1ccccc1
R = Cc1ccc(S(=O)(=O)Nc2ccc3[nH]ccc3c2)cc1[N+](=O)[O-]
S = Cc1ccc(S(=O)(=O)NCc2ccc3[nH]ccc3c2)cc1
Order these by inhibition at 1 µM, descending, and give the full ranking. # the answer lists labels in the order requested
Q, S, P, R
(Q: 110%, S: 33.4%, P: 19.7%, R: 12.8%)
